# Target System: T1, human GIP receptor (GIPR) (human), P48546
# T1 chain: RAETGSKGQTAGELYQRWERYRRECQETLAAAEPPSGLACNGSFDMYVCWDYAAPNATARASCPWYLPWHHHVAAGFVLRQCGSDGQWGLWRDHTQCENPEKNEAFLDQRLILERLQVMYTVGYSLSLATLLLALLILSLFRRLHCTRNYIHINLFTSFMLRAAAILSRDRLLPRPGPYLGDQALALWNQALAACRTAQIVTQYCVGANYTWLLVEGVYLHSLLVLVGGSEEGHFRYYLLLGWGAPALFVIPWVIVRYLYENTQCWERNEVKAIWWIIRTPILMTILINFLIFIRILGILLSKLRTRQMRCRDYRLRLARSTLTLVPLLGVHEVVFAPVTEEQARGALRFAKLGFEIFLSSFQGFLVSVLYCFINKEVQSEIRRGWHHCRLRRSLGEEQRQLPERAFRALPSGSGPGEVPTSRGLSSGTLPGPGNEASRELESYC
# Measurement Protocol: competition, 125I-GIP(3-30)NH2
# Conditions Used: modification not given
No end group written: not given here.
Outcome Measure: IC50 (nM)
// note: answer is a bare numeric in nM

INPUT: Please indicate IC50 recorded for FISDYSIAMDKIHQQDFVNWLLAQK (not fully specified (C-terminus)) [GIP(6-30)NH2]
OUTPUT: 370

INPUT: Please indicate IC50 recorded for AEGTFISDYSIAMDKIHQQDFVNWLLAQK (not fully specified (C-terminus)) [GIP(2-30)NH2]
OUTPUT: 7.7
